B1: TRIM55 (parent)
chain: FQMEKIEHGYENMNHFTVNLNREE

- Variants of: B1
- Assay Text: protein stability index of a GFP-peptide fusion (GPS, HEK-293T) (PSI 1-6); higher = more stable;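 further: lentivirally expressed fusions sorted by FACS into six bins by GFP to DsRed ratio, PSI derived from sequencing read proportions per bin multiplied by bin number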
- Condition Label: c terminus: a fixed tail appended
Param threshold (3) applies to protein stability index; output Criterion met when value >= threshold, Criterion not met when value < threshold.

Illustrative cases are given below, each with its answer.
Q2S = Criterion met
F1R = Criterion met
V18K = Criterion met
N14I = Criterion not met
I6S = Criterion met

Can H8R be said to have protein stability index at or above 3?
Criterion not met

Thanks! And E23M ?
Criterion not met

What about E7R ?
Criterion not met

Check N12P too.
Criterion not met
